# Measurement notes: soluble fraction after stress (log2 fold change); higher = more stays soluble; pooled small domains, quantitative proteomics
# Study conditions: stress: 50 degC
Classify by measured soluble fraction (log2): condition met if it is equal to or exceeds 0.08, condition not met if it is smaller.

| Sequence code | Class name |
| --- | --- |
| HMRILDFPALKTEFDQLTKDLMAKYPEDGADRVRAIIETVLGPGKKVGALQPHQAELLAEVNTSLKANL | condition met |
| HMNEPITIALREAEEAANKILNEGVHSVELSPQNGYVRRLQHELIARYGLTSASRGSDPSRRVSVGAN | condition not met |
| HMEAFAEAVASMLRKLQPEFAIDLVGPRELLVNGRRLDLENLYRMVNHEPVRGQEIVEHYLDQLFAG | condition not met |
| HMTVDTSELEEMIDDLIKEHPNEWERYSSGEKKVQGFFVGQVMKATSGQADGKAINQILSKRVKS | condition met |

Lookup: Entry HMAGTGKVNTGVANVRSGPGTNYEISGKIYADTEVSILETSNGWYKIKFGNLTGWMSGTVLDIK : is its soluble fraction (log2) no less than 0.08?
Found: condition not met

Lookup: Entry HMRTTTGSEGMIGSIGKAKTDLAPDGKIFIHGELWDATSSSPVSAGQKIEVTQIEGLKLHVKPVL : is its soluble fraction (log2) no less than 0.08?
Found: condition met

Lookup: Entry HMSAEDQRRASQEAAYRFMQVMAGNEAGFEDAARALFAGDNHRFEVLIQSWPDDVRDHVSLLSVDAFA : is its soluble fraction (log2) no less than 0.08?
Found: condition not met

----------
# Measurement notes: soluble fraction after stress (log2 fold change); higher = more stays soluble; pooled small domains, quantitative proteomics
# Study conditions: stress: 50 degC
Classify by measured soluble fraction (log2): criterion met if it is equal to or exceeds -0.1, criterion not met if it is smaller.

Please review the following examples before continuing.
| Sequence code | Class name |
| --- | --- |
| HMTRILTEDDIVNFLIRQPDTAYIIAKSFNENERKVKELLDLLIKKNKVREEIVNGVVSYAVN | criterion not met |
| HMDRYAVRAEELAAALAQYHRHVGVYPENLEDLIAPTGPRGYRGPYLSELPTNPSTSKPDWGYDPATGRVS | criterion met |
| HMVDETDVPTFTDMTLEEAQNEAKQRNLKLEITESPSDKEKDTILEQDPEPGKTVASGSTVKLTVSNGEE | criterion not met |
| HMGSREVPFSDFISKVESGSVLEVVLRGRQVEGLTDANERFQTQIPNYPALFEILERNQVRTRVEPT | criterion met |
| HMDNTFEEVKEKLLDLLKERPLTPAEVSKRMEEDKNILAQVIQYLLEEEIIKTEDGMLSKVIG | criterion met |

Lookup: Entry HMQAGPEDIIRAKLKTAMPEAQIISIRPTPAGLYQVNAKGYESVFVTADGRYLFQGDLLEIQGDRIVNL : is its soluble fraction (log2) no less than -0.1?
Found: criterion not met

Lookup: Entry HMKETERKILQAVLGLPLKYRDVIHLFYYEEMSVKEIAEVLHRQESTVTSQLTRARGILKKNL : is its soluble fraction (log2) no less than -0.1?
Found: criterion met

----------
# Measurement notes: soluble fraction after stress (log2 fold change); higher = more stays soluble; pooled small domains, quantitative proteomics
# Study conditions: stress: 50 degC
Readout label: soluble fraction (log2)
Answers are plain numbers.

Field: example entries. Status: answers known.
| Sequence code | Readout label | Observed result |
| --- | --- | --- |
| HMGTIRAPMPGTILKINVVDGDSVTKGDVLLILESMKMENSITSPKTGSVTSVYVSEGDPVQHGETLIDL | soluble fraction (log2) | -0.147 |
| HMVRSKLEIVPVPEDAVVKIAGLKRLTYQAYQNEDVPYMVYKNGYEAQSGTVFMDTDKTLTVTLEESP | soluble fraction (log2) | -0.0311 |

# batch: return soluble fraction (log2) for each of the 5 sequences below
1. HMDHKTKLQEVLQKSGDVFIEYRLIKEEGPAHERIFWIEVYVDDQLIGTGQGKSKKLAEQAAAENALAALE
2. HMKDVVAPMSGRVVRLMVAAGDEVVKRQALVVVEAMKMENVLTAPKEGRIKKVPVREGMTVEVGQTLVSFE
3. HMASRSQTEIMHLLSSGLPKHELVTALQSLLGISKPTAYKYLSQDVSIAYDHMVKILEYPPFQRVLYQ
4. HMAFIEIMTEGDADGRGFQYPIPTYSITRDFDWSETENNKLLFEMTAKYGTPYFSNYINSDMEPSDV
5. HMTVLPTENDAKALVGLNEDEAVKIIEGNGWTYRIGSRDGEQFMLTEDYSTSRLTLGIEKSIVVTATI

Found:
-0.252
-0.221
-1.34
-0.535
-0.151

Hello, the source for this data is the domain aggregation screens of Martell et al. (2025), in case you need it.
